The measured values listed here are drawn from PubChem BioAssay (NCI).

Consider the following molecules; for each one, report its TGI.
Tested on: SN12C renal
PROTOCOL_SUMMARY: NCI tumour cell line growth inhibition, 48 h
Numbers only, in µM.

Hey, quick one: what's TGI for each of these?
1. O=C(C[n+]1ccccc1)N=N/C(C(=O)Nc1c(Cl)c(O)c2ccccc2c1O)=C1/C(=O)Oc2cc(O)ccc2C1=O
2. c1cn2cc(-c3ccc4ncn(C5CCCCC5)c4c3)nc(-c3ccc4c(c3)ncn4C3CCCCC3)c2n1
3. NC(=O)C(c1ccccc1)N1OC2C(=O)N(c3cccc4ccccc34)C(=O)C2C1c1c2ccccc2c(Cl)c2ccccc12 (stereo not given)
4. CC1(C)CCC[C@@]2(C)C1CC[C@H]1CC(O)C3(C)CCC12C3 (stereo not given in full)

[15.1, 4.53, 16.3, 30.7]

Hey, quick one: what's TGI for each of these?
1. COC1=C(N2CC2)C(=O)c2nc3n(c2C1=O)CCC3
2. Cc1ccc(C(=O)C(Cl)C(Cl)c2ccc(C)cc2)cc1 (stereo not given)
3. CN(C)c1ccc(/C=c2/c3ccccc3n3c2cc(C24CC5CC(CC(C5)C2)C4)[n+]3C)cc1
4. CCCCCCCCC/C=C1\CC(CO)(COC(=O)C2CCCCC2)OC1=O (stereo not given)

2.95
3.88
1.12
35.2

====

System: 786-0 renal
PROTOCOL_SUMMARY: NCI tumour cell line growth inhibition, 48 h
Consider the following compounds; for each one, report its TGI.

| COMPOUND | TGI |
| --- | --- |
| CN(C)CCCCN1c2ccccc2Sc2cc(N=[N+]=[N-])ccc21 | 3.08 µM |
| COc1ccc2c(CN3CCC[C@H]3C(=O)O)cc3cc4c(cc3c2c1)OCO4 | > 100 µM |
| COc1cc(C2c3cc4c(cc3OC(Nc3ccccc3)C2C)OCO4)cc(OC)c1OC (stereo not given) | > 100 µM |
| O=c1[nH]c(=S)[nH]n1C(=S)n1[nH]c(=S)[nH]c1=O | > 100 µM |

Note: attention shifts to another entry.
Quick one: TGI of CCCCCCCCCCC(O)C1CCC(C(O)CCC(O)C2CCC(CCCCCCC[C@H](O)CC3=C[C@@H](C)OC3=O)O2)O1 (stereo not given in full) ?
53.9 µM

====

System: SF-539 CNS
PROTOCOL_SUMMARY: NCI tumour cell line growth inhibition, 48 h
Consider the following compounds; for each one, report its TGI.

Known results for compounds:
| COMPOUND | TGI |
| --- | --- |
| CCCCCC(CO)C(O)(C(F)(F)F)C(F)(F)F (stereo not given) | > 10 µM |
| CCCN1CN(C(C(=O)N[C@@H]2C(=O)N3C(C(=O)O)=C(C)CSC23)c2ccc(O)cc2)CSC1=S (stereo not given in full) | > 100 µM |
| CCN=c1cc2sc3cc(NCC)c(C)cc3nc-2cc1C | 10.2 µM |
| O=C(Nc1ccc(F)cc1)C(=O)C(C1OC(=O)c2ccccc21)[N+](=O)[O-] (stereo not given) | > 100 µM |
| N=C(N)c1csc([C@@H]2O[C@H](CO)[C@@H](O)[C@H]2O)n1 | > 100 µM |

Hey, quick one: what's TGI for each of these?
1. COC1OC(C)C(O)CC1OS(=O)(=O)c1ccc(C)cc1 (stereo not given)
2. CN(C)C(=O)Nc1cc2c3c(c1)CCCN3CCC2
3. C[C@H]1C[C@H](C)c2ccccc2N(C)C1=Nc1ccccc1
4. c1cn2cc(-c3ccc4ncn(C5CCCCC5)c4c3)nc(-c3ccc4c(c3)ncn4C3CCCCC3)c2n1
5. C[C@@H]1N=C(c2ccc(Br)cc2)Nc2nc3ccccn3c2C1=O

1. > 100 µM
2. > 10 µM
3. > 100 µM
4. 3.15 µM
5. 85.3 µM
